Reference source for all entries: ChEMBL document CHEMBL1136112

# experimental-target: Bone morphogenetic protein 1 (Homo sapiens, UniProt P13497)
# Sequence (P13497 whole entry): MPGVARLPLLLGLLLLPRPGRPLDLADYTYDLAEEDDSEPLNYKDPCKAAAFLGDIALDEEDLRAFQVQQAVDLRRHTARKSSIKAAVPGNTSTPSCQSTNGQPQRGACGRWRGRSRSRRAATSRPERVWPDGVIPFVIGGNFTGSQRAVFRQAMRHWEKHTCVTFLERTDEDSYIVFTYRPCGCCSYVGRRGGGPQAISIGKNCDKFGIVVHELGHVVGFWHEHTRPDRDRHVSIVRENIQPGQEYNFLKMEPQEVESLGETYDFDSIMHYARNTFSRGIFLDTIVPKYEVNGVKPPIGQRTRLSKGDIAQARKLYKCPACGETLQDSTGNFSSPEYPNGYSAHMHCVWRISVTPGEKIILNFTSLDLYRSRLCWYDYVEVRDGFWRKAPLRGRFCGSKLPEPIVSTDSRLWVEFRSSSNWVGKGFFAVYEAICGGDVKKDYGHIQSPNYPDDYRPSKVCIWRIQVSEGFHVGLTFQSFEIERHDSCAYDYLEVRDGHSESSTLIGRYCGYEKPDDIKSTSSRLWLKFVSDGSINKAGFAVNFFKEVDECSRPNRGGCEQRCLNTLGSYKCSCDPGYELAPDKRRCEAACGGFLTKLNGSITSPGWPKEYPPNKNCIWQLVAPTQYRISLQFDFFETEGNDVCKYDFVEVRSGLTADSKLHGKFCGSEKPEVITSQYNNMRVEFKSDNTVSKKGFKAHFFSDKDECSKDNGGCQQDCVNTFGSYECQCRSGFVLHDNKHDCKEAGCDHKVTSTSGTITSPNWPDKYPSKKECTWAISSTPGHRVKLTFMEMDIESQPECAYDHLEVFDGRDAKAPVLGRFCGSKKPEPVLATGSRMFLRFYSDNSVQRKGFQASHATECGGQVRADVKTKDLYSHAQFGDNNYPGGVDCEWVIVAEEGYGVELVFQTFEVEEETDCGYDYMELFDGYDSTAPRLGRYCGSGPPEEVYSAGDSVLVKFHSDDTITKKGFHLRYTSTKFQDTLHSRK
# method-notes: Ability to inhibit procollagen C-terminal proteinase (PCP) tested in vitro
pKi overview
Please treat pKi as minus the base-10 logarithm of the molar concentration.

In [3]: df
Out[3]:
                            molecule_smiles  property_label  value_observed
0  COc1cc(C)c(S(=O)(=O)N(Cc2ccc3c(c2)OCO3)[C@H](CCC(=O)N2CCN(c3ccccc3)CC2)C(=O)NO)c(C)c1C             pKi            6.96

Please look at this compound and report its pKi: COc1ccc(S(=O)(=O)N(Cc2ccc3c(c2)OCO3)[C@H](CCC(=O)N(CCC#N)Cc2ccccc2)C(=O)NO)cc1
7.48

Return pKi (reported value) for this compound: COc1ccc(S(=O)(=O)N(Cc2ccc3c(c2)OCO3)[C@H](CCC(=O)N(Cc2ccccc2)Cc2ccccc2)C(=O)NO)cc1
6.40

Using the record for COc1ccc(S(=O)(=O)N(Cc2ccc3c(c2)OCO3)[C@H](CCC(=O)N2CCN(Cc3ccccc3)CC2)C(=O)NO)cc1 , state its measured pKi.
6.13

Provide one value: measured pKi of COc1ccc(S(=O)(=O)N(Cc2ccc3c(c2)OCO3)[C@H](CCC(=O)NCC(C)C)C(=O)NO)cc1
6.55

For COc1ccc(S(=O)(=O)N(Cc2ccc3c(c2)OCO3)[C@H](CCC(=O)NCc2ccccc2)C(=O)NO)cc1 , write its pKi.
7.01
